# Species on record: Rattus norvegicus
# assay.details: DrugMatrix - Regimen: Daily Repeat
# Format: toxicity, organism-based, Sprague-Dawley
# Set-up: regimen Daily Repeat, gender Male, age 6-8 weeks
# experimental.conditions: in vivo, po, 10 mg/kg, 72 h, tissue Blood, route oral GAVAGE, dose level Low, time 3 day, […]
experimental.readout: LYMPHOCYTE (%)
Respond numerically; units are % and should not be typed.

Prompt: What LYMPHOCYTE value was documented for this molecule, CC(C)CC(N(C)C)C1(c2ccc(Cl)cc2)CCC1 (centres undefined) [SIBUTRAMINE] ?
Response: 91

Prompt: What LYMPHOCYTE value was documented for this molecule, CCOC(=O)C1=C(C)NC(C)=C(C(=O)OC)C1c1cccc([N+](=O)[O-])c1 (centres undefined) [NITRENDIPINE] ?
Response: 89.33

Prompt: What LYMPHOCYTE value was documented for this molecule, COc1ccc2cc([C@H](C)C(=O)O)ccc2c1 [NAPROXEN] ?
Response: 90.67

Prompt: What LYMPHOCYTE value was documented for this molecule, COCCOC(=O)C1=C(C)NC(C)=C(C(=O)OC(C)C)C1c1cccc([N+](=O)[O-])c1 (centres undefined) [NIMODIPINE] ?
Response: 92
